Assay: Counterscreen for APE1 Inhibitors: Fluorescent Dye Displacement Validation Assay (AID 1707)
Conditions: fluorescent dye displacement from DNA; series mostly up to 57.1 µM
From the text: In order to distinguish true inhibitors of DNA-processing enzymes from promiscuous DNA-binding compounds among screening assay hits, we developed a homogeneous and miniaturized assay based on fluorescent dye displacement test as originally described by Tse and Boger (Accounts of Chemical Research (2004) 37: 61-69). […]
Inconclusive results are not listed. Active and inactive are the calls of the source. Calls come from the whole dose curve; as a rule, active = well fitted inhibition curve with a large enough effect; inconclusive = small, poorly fitted or top-dose-only effect; inactive = no such curve, though single readings can be large or run the other way.
Labels: label 1 (active), label 0 (inactive)

compound: CC(N)(Cc1ccc(O)c(O)c1)C(=O)O (stereo unspecified)
cat: label 0
//
compound: NC(N)=[N+]1CCc2ccccc2C1
cat: label 0
//
compound: Cc1cccc(C(=O)NCN2CCN(c3ccccc3C#N)CC2)c1
cat: label 0
//
compound: Cc1ccc2c(c1)C(N1CCN(C)CC1)=Nc1cccnc1N2
cat: label 0
//
compound: Cc1ccccc1/C=C/C1=NCCN1
cat: label 0
//
compound: Nc1ccc(-c2nc3ccc(-c4nc5ccc(N)cc5[nH]4)cc3[nH]2)cc1
cat: label 1
